- Substrate: N[C@@H](Cc1ccccc1)C(=O)O
- TEST_SUMMARY: purified protein
- Assay type: biochemical, Halalkalibacterium halodurans
- CONDITION_INFO: oxidative deamination, 2 mM NAD+, 50 mM glycine-KCl-KOH pH 10.4, 25°C
ASSAY_ENDPOINT: Km
Numeric answer plus unit only.

**Q:** Query: Km; subject: PheDH (Halalkalibacterium halodurans C-125) (protein) MLTKTPTVTSTLDIFTEMAEHEQVLFCHDPSSGLRAIIAIHDTTLGPALGGCRMYPYQTTEDALRDVLRLSKGMTQKCAAADVDFGGGKAVIIGDPAKDKSANLFRAFGQFVESLNGRFYTGTDMGTTMEDFVHALKETNGIVGIPKEYGGSGDSSVPTAKGVINSLKAISQVVLKDKQFSGRTYAIQGLGKVGFKVAEELLKEGNDLYVSDLQESLPLRLQQLGQRLGRHVEILHGDEIYEAAADVFVPCAQGAILNDATIARLKVKAIAGAANNQLEAERHGQMLHDQGIWFAPDYIVNSGGLIQVADELYGSNEKRVLSKTNAIYDTILEIFHQAERHHITTLQAANQLCERRIRERARRNNFFVNRIRPKWNLRK
**A:** 6.88 ± 0.41 mM
